Data provenance is the supplement of paper PMC10567573.

B1: CDKN1A (parent)
chain: GRKRRQTSMTDFYHSKRRLIFSKR

Variants of: B1
Assay: protein stability index of a GFP-peptide fusion (GPS, HEK-293T) (PSI 1-6); higher = more stable;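 note: lentivirally expressed fusions sorted by FACS into six bins by GFP to DsRed ratio, PSI derived from sequencing read proportions per bin multiplied by bin number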
Details: c terminus: a fixed tail appended
I'd be grateful if you could share measured protein stability index for these entries.
API doc: respond with a numeric literal and nothing else, no unit.

Quick one: protein stability index of `R17D` ?
3.57

Quick one: protein stability index of `K16H` ?
2.96

Quick one: protein stability index of `M9P` ?
2.69

Quick one: protein stability index of `Y13P` ?
3.53

Quick one: protein stability index of `K3A` ?
3.12

Quick one: protein stability index of `R24I` ?
2.91

Quick one: protein stability index of `R2W` ?
2.53

Quick one: protein stability index of `G1S` ?
3.84

Quick one: protein stability index of `Q6G` ?
2.76

Quick one: protein stability index of `Q6D` ?
2.1

Quick one: protein stability index of `H14P` ?
4.57

Quick one: protein stability index of `R4T` ?
3.95

Quick one: protein stability index of `L19S` ?
3.31

Quick one: protein stability index of `H14L` ?
3.02

Quick one: protein stability index of `K3V` ?
2.83

Quick one: protein stability index of `R4Y` ?
3.36
